- measurement_target: T1, human PD-L1 (construct not stated) (human, UniProt Q9NZQ7 19-239, limits assumed)
- T1 construct: also called B7-H1 (PD-L1); PD-L1 protein
- T1 sequence (Q9NZQ7 19-239 limits assumed): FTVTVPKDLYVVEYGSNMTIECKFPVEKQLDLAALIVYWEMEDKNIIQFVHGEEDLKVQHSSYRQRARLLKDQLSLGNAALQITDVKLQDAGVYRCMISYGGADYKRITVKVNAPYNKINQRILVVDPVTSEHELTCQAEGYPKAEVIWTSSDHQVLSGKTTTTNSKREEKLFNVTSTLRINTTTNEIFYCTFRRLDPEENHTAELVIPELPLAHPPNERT
- experiment_notes: BLI Octet Red 96, affinity ranking
As shown below, each of these binders has a reported koff value.
Respond with the bare value in s⁻¹.

Solved entries:
{"binder": "Hu1210-18 (antibody, V domains shown, Hu1210 VH.3 x Vk.1a; human gamma 1 / kappa constant domains) VH: EVQLLESGGGLVQPGGSLRLSCAASGFTFSSYDMSWVRQAPGKGLEWVSTISDGGGYIYYSDSVKGRFTISRDNSKNTLYLQMNSLRAEDTAVYYCAREFGKRYALDYWGQGTTVTVSS VL: DIQMTQSPSSLSASVGDRVTITCKASQDVTPAVAWYQQKPGKSPKLLIYSTSSRYTGVPSRFSGSGSGTDFTFTISSLQPEDIATYYCQQHYTTPLTFGQGTKLEIK", "reported_endpoint": "koff", "number": 0.000357}
{"binder": "Hu1210-16 (antibody, V domains shown, Hu1210 VH.4a x Vk.1; human gamma 1 / kappa constant domains) VH: EVQLVESGGGLVQPGGSLRLSCAASGFTFSSYDMSWVRQAPGKGLEWVATISDGGGYIYYSDSVKGRFTISRDNAKNSLYLQMNSLRDEDTAVYYCAREFGKRYALDYWGQGTTVTVSS VL: DIQMTQSPSSLSASVGDRVTITCKASQDVTPAVAWYQQKPGKAPKLLIYSTSSRYTGVPSRFSGSGSGTDFTFTISSLQPEDIATYYCQQHYTTPLTFGQGTKLEIK", "reported_endpoint": "koff", "number": 0.000264}

Moving on to the next binder.
Dear colleague, I am looking for the recorded koff of the following binder: Hu1210-20 (antibody, V domains shown, Hu1210 VH.4 x Vk.1a; human gamma 1 / kappa constant domains) VH: EVQLVESGGGLVQPGGSLRLSCAASGFTFSSYDMSWVRQAPGKGLEWVSTISDGGGYIYYSDSVKGRFTISRDNAKNSLYLQMNSLRDEDTAVYYCAREFGKRYALDYWGQGTTVTVSS VL: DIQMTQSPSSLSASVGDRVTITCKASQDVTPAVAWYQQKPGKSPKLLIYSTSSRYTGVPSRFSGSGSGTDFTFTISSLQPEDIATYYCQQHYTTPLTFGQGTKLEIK 0.0004
